Collected set of Ki measured with UniProtKB P23977 across studies.
Sequence (P23977 whole entry): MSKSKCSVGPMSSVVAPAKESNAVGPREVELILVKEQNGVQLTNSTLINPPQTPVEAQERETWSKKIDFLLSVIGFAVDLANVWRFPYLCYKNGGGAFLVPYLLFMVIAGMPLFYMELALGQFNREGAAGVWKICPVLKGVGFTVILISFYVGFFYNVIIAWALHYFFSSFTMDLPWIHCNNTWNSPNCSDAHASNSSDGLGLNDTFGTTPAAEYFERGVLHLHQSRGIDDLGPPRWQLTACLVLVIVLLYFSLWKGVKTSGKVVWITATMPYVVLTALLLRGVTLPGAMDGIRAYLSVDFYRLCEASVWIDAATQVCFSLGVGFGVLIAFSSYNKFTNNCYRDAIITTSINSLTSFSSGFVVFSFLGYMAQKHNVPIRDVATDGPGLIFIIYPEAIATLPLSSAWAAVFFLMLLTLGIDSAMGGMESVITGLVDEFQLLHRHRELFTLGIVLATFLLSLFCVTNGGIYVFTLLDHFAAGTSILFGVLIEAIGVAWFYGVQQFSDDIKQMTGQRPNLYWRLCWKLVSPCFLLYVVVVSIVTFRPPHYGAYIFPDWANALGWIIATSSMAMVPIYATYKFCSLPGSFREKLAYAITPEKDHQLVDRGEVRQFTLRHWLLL

Considering CN(C)CCCNc1nc(-c2ccccc2)nc2ccccc12 , its Ki with UniProtKB P23977 was recorded as > 10000 nM

Reported Ki (UniProtKB P23977) for entry Clc1cccc(N2CCN(CCCc3ccccc3)CC2)c1 is > 10000 nM

Record COc1cc2c(cc1OC)C1=NO[C@@H](CN3CCN(C/C(C)=C/c4ccccc4)CC3)[C@@H]1CO2 ; system UniProtKB P23977; Ki = > 1000 nM

Test item c1ccc(-c2nccnc2-c2ccccc2)cc1 ; UniProtKB P23977; reported Ki was > 1000 nM

Item: CN(C)C(=O)c1ccccc1Sc1ccc(F)cc1C=O | System: UniProtKB P23977 | Ki: > 1000 nM

Form field, Ki with UniProtKB P23977, item CCCn1c(=O)n(CCCCN2CCN(c3ccc(F)cc3)CC2)c2ccccc21 : > 1000 nM
